System Name: HCV E1E2 antigen, isolate UKN3A1.28c (hepatitis C virus, isolate UKN3A1.28c)
Test Method Notes: ELISA, Fab on E1E2 antigen
Quantity Name: OD 450 nm (OD 450 nm)

binder="Fab R1 (Fab, V domains shown) VH: VQLLEQSGAEVKKPGASVKVSCKASGYTFSIYGVAWVRQAPGQGLEWMGWISPQNGDTHSPQKFQGRLTMTTDTSTSTAYMELRSLRSDDTAVYFCARDYGVNFGGGSEHNLDYWGRGTRVTVSS VL: ELTQSPLSLPVTPGEPASISCRSSYSLLHINGYKYLDWYLQRPGQSPQLLIYLGSNRAPGVPDRFSGSGSGTSFTLKISRVEAEDVGVYYCMQSLQAPWTFGQGTKVEMKR" endpoint_unit="OD 450 nm" endpoint_value=0
binder="Fab P1a (Fab, V domains shown) VH: EVQLLESGGGVVQPGGSLRLSCAASGFTFTSFTMHWVRQAPGKGLEWVALISHDGSNKDYADSVRGRFTVSRDNSKKMVYLQMSSLRPDDAAVYYCARGGPAYYTYSDTLTGYHNVVGDYWGQGTLVTVSS VL: ELTQSPGTLSLSPGERATLSCRTSQSVSSTYLAWYQQKPGQPPRLLIYGASNRAPGIPDRFSGSGSGTDFTLTISRLEPEDFAVYYCQQYGDSPPITFGQGTRLDIKR" endpoint_unit="OD 450 nm" endpoint_value=0.18
binder="Fab Q2 (Fab, V domains shown) VH: VQLLEQSGAEVKKPGASVKVSCKASGYTFTNNGLNWVRQAPGQGLEWMGWISPYNGDTDFAHKFQGRISMTTDTSTNTAYMELRSLRSDDTAVYYCARDRNSAGGTWLFRDPPPGSTFFDSWGQGSLVTVSS VL: ELTQSPASLSLSPGGSATLACRASRGVNSNLAWYHQKPGQAPRLLIYSASTRATGIPGRFSGSGFGTEFTLTINNLQSDDFGVYYCQQYDDTPQITFGQGTRLDIKR" endpoint_unit="OD 450 nm" endpoint_value=0.35
